- Tested on: tobacco budworm (Heliothis virescens [Fabricius])
- method: surface-treated diet test against tobacco budworm
- Format: in vivo
- reported-conditions: 0.25 millimolar candidate insecticide on the surface of the diet; second instar larvae; five-day exposure; compared to total number of insects infested
Examples of molecules with documented Percent Mortality follow.
outcome-measure: Percent Mortality (%)

* Cc1nn(-c2ccc(S(=O)(=O)C(F)F)cc2)c(=O)n1CCCCOc1c(Cl)cc(OCC=C(Cl)Cl)cc1Cl | 100
* O=c1cnn(-c2ccc(Cl)cc2)c(=O)n1CCCCOc1c(Cl)cc(OCC=C(Cl)Cl)cc1Cl | 100
* O=c1n(-c2ccc(Cl)cc2)cnn1CCCCOc1c(Cl)cc(OCC=C(Cl)Cl)cc1Cl | 100
* O=c1n(CCCCOc2cc(Cl)c(OCC=C(Cl)Cl)c(Cl)c2)nnn1-c1cccc(Cl)c1 | 100
* O=c1cnn(-c2cc(Cl)cc(Cl)c2)c(=O)n1CCCCOc1c(Cl)cc(OCC=C(Cl)Cl)cc1Cl | 100
* O=c1cnn(-c2ccc(OC(F)F)cc2)c(=O)n1CCCCOc1c(Cl)cc(OCC=C(Cl)Cl)cc1Cl | 100
* O=c1n(CCCCOc2c(Cl)cc(OCC=C(Cl)Cl)cc2Cl)cnn1-c1ccc(Cl)cc1 | 100
